target_entity: Grb2 SH2 (UniProt P62993)
assay_notes: SH2 binding enrichment of the phosphorylated peptide, bacterial display (enrichment ratio); higher = better substrate or ligand; peptides without Tyr show the background
value_type: SH2 binding enrichment

> print(dat)
                   primary.sequence              value.type  reading
1     KSRQIYDAYIM [GRK3_Y109_R104K]  SH2 binding enrichment    0.955
2    AQMAMYFWEMS [TRPM4_Y577_G582S]  SH2 binding enrichment     1.15
3         WRVIGYHVVVW [ATP13A2_Y50]  SH2 binding enrichment     1.08
4         AKRKNYAPVAM [CFAP47_Y557]  SH2 binding enrichment     1.11
5  HHTNEYEFDEL [TGM1_Y134_D132N_YF]  SH2 binding enrichment    0.678

[I] SQSAKYDMAED [TTC21B_Y1213_I1208S]
[II] HFMELYDLNRD [BBS2_Y648_R643H_YF]
Between I and II , which one shows the larger SH2 binding enrichment value? The response must carry the label of the picked entry. II

[I] GAVDTYCRHNF [HLA-DRB1_Y107_A102G_YF]
[II] AVRVFYRKCPH [EPHB2_Y194_R199H]
Sort I and II by SH2 binding enrichment descending and give the first. Lab log: write the label of the selected item as the result. I

====

Test system: c-Abl (mouse)
assay_notes: phosphorylation enrichment, bacterial display (enrichment ratio); higher = better substrate or ligand; peptides without Tyr show the background
value_type: phosphorylation enrichment
# respond with the number and nothing more

Some solved entries appear below for comparison.
> print(dat)
                 primary.sequence                  value.type  reading
1    MFNPFYGLFEF [NEDD4L_Y680_YF]  phosphorylation enrichment    0.775
2    PSDSGYSFETI [MAP1B_Y1921_YF]  phosphorylation enrichment    0.763
3  KLQKKYGPISS [CYP17A1_Y60_Y64S]  phosphorylation enrichment    0.399
4  TNFCLYLRSLE [MTM1_Y71_R69C_YF]  phosphorylation enrichment     1.27
5  HILQLYRCREE [ALPK3_Y342_T338I]  phosphorylation enrichment    0.423

Note phosphorylation enrichment for the sequence shown: REEKNYKLKET [BCLAF1_Y459] 1.16

Quote phosphorylation enrichment reported for SQPASYQRRFL [PPIG_Y320_L324F] please. 0.599

====

target_entity: FGFR3 (UniProt P22607)
Sequence (P22607 whole entry, looked up): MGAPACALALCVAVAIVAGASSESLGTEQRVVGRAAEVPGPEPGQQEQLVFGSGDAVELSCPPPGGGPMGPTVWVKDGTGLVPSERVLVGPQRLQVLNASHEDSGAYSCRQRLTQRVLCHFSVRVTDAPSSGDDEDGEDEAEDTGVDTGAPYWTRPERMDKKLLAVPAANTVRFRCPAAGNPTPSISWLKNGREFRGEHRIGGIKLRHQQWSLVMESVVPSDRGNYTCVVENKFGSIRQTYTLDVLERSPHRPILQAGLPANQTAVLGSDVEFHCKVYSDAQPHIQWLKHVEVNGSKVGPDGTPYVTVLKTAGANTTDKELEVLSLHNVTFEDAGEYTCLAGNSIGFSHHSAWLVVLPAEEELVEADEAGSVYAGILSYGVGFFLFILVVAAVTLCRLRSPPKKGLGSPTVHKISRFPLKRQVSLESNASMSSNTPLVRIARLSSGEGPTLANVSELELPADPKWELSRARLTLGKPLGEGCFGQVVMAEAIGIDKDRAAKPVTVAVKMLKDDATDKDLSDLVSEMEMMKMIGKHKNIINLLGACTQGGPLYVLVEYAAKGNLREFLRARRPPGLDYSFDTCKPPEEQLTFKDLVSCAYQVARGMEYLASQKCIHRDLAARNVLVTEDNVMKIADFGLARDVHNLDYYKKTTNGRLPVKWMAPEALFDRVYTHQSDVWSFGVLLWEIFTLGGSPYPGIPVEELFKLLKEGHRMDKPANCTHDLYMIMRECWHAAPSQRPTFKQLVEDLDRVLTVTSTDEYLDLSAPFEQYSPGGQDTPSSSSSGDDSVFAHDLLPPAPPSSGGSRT
assay_notes: phosphorylation enrichment, bacterial display (enrichment ratio); higher = better substrate or ligand; peptides without Tyr show the background
value_type: phosphorylation enrichment
Respond with the number and no other words.

> print(dat)
                    primary.sequence           target.entity  reading
1       KWRGQYDVAIE [BTK_Y425_K430E]  FGFR3 (UniProt P22607)    0.481
2        PTTKSYFPHFD [HBA1_Y43_T42S]  FGFR3 (UniProt P22607)     0.77
3     NNHGNYIVHLG [ETFDH_Y172_R175H]  FGFR3 (UniProt P22607)    0.537
4      SQINLYQDVML [ZNF806_Y33_A28S]  FGFR3 (UniProt P22607)     1.06
5  TSFQMYDKGLV [IARS2_Y231_F227S_YF]  FGFR3 (UniProt P22607)     0.82
6      PLDGEYSTLQI [TP53_Y327_F328S]  FGFR3 (UniProt P22607)     1.18
7          GSLEDYVRETN [GIMAP6_Y176]  FGFR3 (UniProt P22607)    0.661
8    EVDGLYREAPI [MYL12B_Y143_E141G]  FGFR3 (UniProt P22607)    0.718

State, in one line, measured phosphorylation enrichment of PLDGEYFTLHI [TP53_Y327_Q331H] 4.7

====

target_entity: Hck (UniProt P08631)
Sequence (P08631 whole entry, looked up): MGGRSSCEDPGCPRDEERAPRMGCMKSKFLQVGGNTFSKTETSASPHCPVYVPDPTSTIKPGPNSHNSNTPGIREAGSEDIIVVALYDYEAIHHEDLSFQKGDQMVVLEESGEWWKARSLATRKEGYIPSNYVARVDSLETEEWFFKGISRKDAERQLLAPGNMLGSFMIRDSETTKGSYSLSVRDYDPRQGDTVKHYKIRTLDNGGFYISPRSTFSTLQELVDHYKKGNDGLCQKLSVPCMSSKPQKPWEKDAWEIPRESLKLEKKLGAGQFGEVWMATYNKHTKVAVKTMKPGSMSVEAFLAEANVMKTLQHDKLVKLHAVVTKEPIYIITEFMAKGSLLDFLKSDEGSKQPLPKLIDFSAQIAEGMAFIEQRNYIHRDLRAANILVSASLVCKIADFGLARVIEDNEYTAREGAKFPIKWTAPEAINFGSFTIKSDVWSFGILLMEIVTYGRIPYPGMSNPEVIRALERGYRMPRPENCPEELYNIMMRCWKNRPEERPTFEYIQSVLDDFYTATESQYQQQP
assay_notes: phosphorylation enrichment, bacterial display (enrichment ratio); higher = better substrate or ligand; peptides without Tyr show the background
value_type: phosphorylation enrichment
In your answer, state the number alone without any accompanying words.

Use the examples below as a reference point.
> print(dat)
                 primary.sequence         target.entity                  value.type  reading
1     GIADDYDKKKP [EIF1_Y54_L59P]  Hck (UniProt P08631)  phosphorylation enrichment    0.381
2  LLVVLCKYRCY [PSEN1_Y154_Y154C]  Hck (UniProt P08631)  phosphorylation enrichment    0.382

Please look at this sequence and report its phosphorylation enrichment: FAKTQYPDVFA [CRX_Y63_YF] 0.483

Identify measured phosphorylation enrichment associated with LQTYRYHGLSM [PDHA1_Y289_H292L] 0.648

Indicate its recorded phosphorylation enrichment; the sequence in question is KLLRLYAVVTR [LYN_Y306_V303L] 0.468

Return phosphorylation enrichment (reported value) for this sequence: NLSVPYDSSLK [ABCC8_Y1353_R1352P] 0.445

Identify measured phosphorylation enrichment corresponding to SVVVHYEPPEV [TP53_Y220_P219H] 0.537

Given the sequence RAFSWYQHQRA [NDST1_Y714_YF] , write its reported phosphorylation enrichment. 0.611

Give phosphorylation enrichment for the following sequence: NFATLYLKIYH [PDE6B_Y219] 0.42

For the sequence LNTFHHAGVSA [POLR2A_Y1109_Y1109H] , give its measured phosphorylation enrichment value. 0.575

Specify reported phosphorylation enrichment for the sequence shown: IRSGIYYKPES [L2HGDH_Y102_H98R] 2.6

Report phosphorylation enrichment, nothing else, for this sequence: GTTIHYNYMCN [TP53_Y234_C229G] 0.673

Specify measured phosphorylation enrichment for HESEIYCKVCF [CSRP3_Y57_YF] . 7.63

Note down phosphorylation enrichment recorded for DVCKKYAEAKD [ALB_Y343_N342K] 0.659

Given the sequence "TKGNEYVFRVA" , write its reported phosphorylation enrichment. 0.511

Hello, please tell me recorded phosphorylation enrichment for this one: YAANYYKLLGN [ROR2_Y646_D644N] 0.406

Note phosphorylation enrichment for the sequence shown: PVRIAYGRPRG [SUGP2_Y985_D986G] 1.25

Quote phosphorylation enrichment reported for KRLFAYKMLMA [TMC2_Y209_Q205R_YF] please. 0.455

Please give the documented phosphorylation enrichment of FAKTQYPDVYA [CRX_Y63] 0.653

Consider the sequence RRNTYYASIAK [ACADM_Y353] . State its measured phosphorylation enrichment. 0.853

Item IVKAFYVRARA [AIPL1_Y268_YF] : provide phosphorylation enrichment 0.494

====

System: c-Src
assay_notes: phosphorylation enrichment, bacterial display (enrichment ratio); higher = better substrate or ligand; peptides without Tyr show the background
Reported phosphorylation enrichment is given for each of the following sequences.
Respond numerically, and do not add a unit to the figure.

> print(dat)
                   primary.sequence  target.entity  reading
1  GYAGKYIAMVM [CYP19A1_Y441_C437Y]          c-Src    0.381
2    KNITEYCRHLI [RECQL_Y492_D495H]          c-Src    0.477

Tell us which phosphorylation enrichment value is on record for RTLIRYAKLGN [BEST1_Y131_N133K] 1.02

Write down phosphorylation enrichment measured for item HKLSSYEYDFE [BTK_Y40_Y39S] 1.43

Determine its reported phosphorylation enrichment: LAIEWYVVVCK [RHO_Y136_R135W] 0.852

====

target_entity: FGFR1 (UniProt P11362)
Sequence (P11362 whole entry, looked up): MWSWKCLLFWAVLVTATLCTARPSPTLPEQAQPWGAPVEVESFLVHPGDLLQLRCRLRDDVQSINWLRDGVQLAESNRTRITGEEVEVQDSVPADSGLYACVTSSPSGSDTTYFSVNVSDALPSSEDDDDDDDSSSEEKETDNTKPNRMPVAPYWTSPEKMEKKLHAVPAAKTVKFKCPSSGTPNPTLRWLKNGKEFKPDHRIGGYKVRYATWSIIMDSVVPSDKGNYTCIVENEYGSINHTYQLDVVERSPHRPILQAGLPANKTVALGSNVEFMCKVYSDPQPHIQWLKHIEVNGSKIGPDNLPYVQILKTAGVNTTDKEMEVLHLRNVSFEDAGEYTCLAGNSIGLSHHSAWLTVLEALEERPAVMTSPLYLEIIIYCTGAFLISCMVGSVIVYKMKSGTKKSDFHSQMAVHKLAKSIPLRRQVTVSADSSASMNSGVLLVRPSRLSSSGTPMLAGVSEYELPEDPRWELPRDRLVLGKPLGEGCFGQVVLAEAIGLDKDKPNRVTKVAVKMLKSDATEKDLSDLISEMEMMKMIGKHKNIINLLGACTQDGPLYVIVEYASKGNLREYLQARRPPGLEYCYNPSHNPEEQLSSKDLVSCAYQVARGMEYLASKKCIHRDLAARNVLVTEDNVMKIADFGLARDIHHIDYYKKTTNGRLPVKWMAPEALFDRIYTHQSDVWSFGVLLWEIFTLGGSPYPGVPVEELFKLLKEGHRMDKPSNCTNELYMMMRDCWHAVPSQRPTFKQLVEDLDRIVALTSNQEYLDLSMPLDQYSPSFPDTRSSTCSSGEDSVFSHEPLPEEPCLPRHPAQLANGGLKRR
assay_notes: phosphorylation enrichment, bacterial display (enrichment ratio); higher = better substrate or ligand; peptides without Tyr show the background
value_type: phosphorylation enrichment
Just the number, please, no unit after it.

# example entries with known answers
> print(dat)
              primary.sequence                  value.type  reading
1     PELIDYGKLRK [ACTN1_Y193]  phosphorylation enrichment    0.714
2  HQNGTYGLHQD [SGSH_Y89_M88T]  phosphorylation enrichment     0.71

Return reported phosphorylation enrichment. Input sequence: IVGLLYRLLTE [SETX_Y1978] 0.699

====

Tested on: c-Abl (mouse)
assay_notes: phosphorylation enrichment, bacterial display (enrichment ratio); higher = better substrate or ligand; peptides without Tyr show the background
value_type: phosphorylation enrichment
# output: bare number, no unit

Below, each entry is followed by its recorded phosphorylation enrichment result.
> print(dat)
                    primary.sequence                  value.type  reading
 1          GADAIYDHINE [UQCR10_Y44]  phosphorylation enrichment    0.689
 2           SSEYHYVGGFY [CTSC_Y347]  phosphorylation enrichment     14.9
 3    SPPILYSFYLN [FCRL6_Y239_D244N]  phosphorylation enrichment      1.5
 4    GPIFRYDSGGA [CYP11B1_Y81_L83S]  phosphorylation enrichment    0.576
 5   PLGVLYKVKVF [PTS_Y128_V124L_YF]  phosphorylation enrichment    0.973
 6           AEEKEYHAEGG [EGFR_Y869]  phosphorylation enrichment    0.653
 7  RSFSPCDFQPC [TNS1_Y796_Y796C_YF]  phosphorylation enrichment    0.427
 8         VDTRAYFTSAT [MT-CO1_Y304]  phosphorylation enrichment    0.382
 9        TQNGVYSAANF [DDX5_Y535_YF]  phosphorylation enrichment        2
10    RENGPYYASYP [GDAP2_Y487_T489A]  phosphorylation enrichment     1.94

Let me know recorded phosphorylation enrichment for PRAEWYRDDVL [MYOM2_Y317] , thanks. 0.879

Look up and report measured phosphorylation enrichment for this entry: GVPLGYPIKAS [ELN_Y206_P211S] 0.714

Identify measured phosphorylation enrichment associated with PVKDGYQMAQP [CSF1R_Y873_L868P] 0.278

Entry TGTQLYGRFGS [ITGA2B_Y384] needs its phosphorylation enrichment filled in; supply it. 0.404

For the sequence LKGIRYLTSGL [PIGA_Y82_R77L] , report phosphorylation enrichment. 1.28

Answer with the recorded phosphorylation enrichment for the sequence listed here: NGRTGYVLQPE [PLCG2_Y1036] 0.494

Query phosphorylation enrichment for FAKTQYPDVFA [CRX_Y63_YF] 0.478

Retrieve phosphorylation enrichment measured for GAVDTYCRHNF [HLA-DRB1_Y107_A102G_YF] and print it. 0.583

Identify measured phosphorylation enrichment corresponding to NTVDYYDLYGG [PTPN11_Y63_G60V] 0.788

Return value of phosphorylation enrichment for input PVQAAYRKVVA [HBB_Y131_Q132R] , no commentary. 0.48

Read off the recorded phosphorylation enrichment for YGCGMYSHLQG [LGR4_Y848_D844G] 1.49
